Values from paper PMC10683025

# measurement_protocol: Metabolic stability in liver microsomes
# Format: in vitro ADME, human
# stated_conditions: human LM, +Cofactors, 30 min

molecule: COc1cc2ncnc(Nc3ccc(F)c(Cl)c3)c2cc1OCCON1CCOCC1
readout_units: %
Remaining Percentage: 28.74

molecule: COc1cc2ncnc(Nc3cccc(Cl)c3F)c2cc1OCCON1CCOCC1
readout_units: %
Remaining Percentage: 21.93

molecule: COc1cc2ncnc(Nc3ccc(F)c(Cl)c3)c2cc1OCCON1CCN(C)CC1
readout_units: %
Remaining Percentage: 39.49

molecule: COc1cc2ncnc(Nc3ccc(F)c(Cl)c3)c2cc1OCCCN1CCOCC1 [Gefitinib (1), Gefitinib, reference compound]
readout_units: %
Remaining Percentage: 19.60

molecule: COc1cc2ncnc(Nc3cccc(Cl)c3F)c2cc1OCCON1CCN(C)CC1
readout_units: %
Remaining Percentage: 46.26
